These data points were gathered from ChEMBL document CHEMBL4311935.

- System: K562
- Assay comment: Cytotoxicity against human K562 cells assessed as cell growth inhibition after 48 hrs by MTT assay
- Assay type: functional, cell-based
- Measurement parameters: K562, 48 h
Measurement kind: IC50 (µM)
Enter your answer as a number in µM; do not include the unit.

Reference set, count: 2
INSERT INTO assay_data (compound, study_target, measurement_kind, numeric_readout) VALUES
  ('CC1(C)[C@@H](O)CC[C@]2(C)[C@H]3C(=O)C=C4[C@@H]5C[C@@](C)(C(=O)OCCCCCCCCn6cc(F)c(=O)[nH]c6=O)CC[C@]5(C)CC[C@@]4(C)[C@]3(C)CC[C@@H]12', 'K562', 'IC50', 9.8),
  ('O=c1[nH]cc(F)c(=O)[nH]1 [FLUOROURACIL]', 'K562', 'IC50', 41.7);

Now take the following compound into account.
Data request: Which IC50 is reported for this compound? CC1(C)CC[C@]2(C(=O)OCCCCCCn3cc(F)c(=O)[nH]c3=O)CC[C@]3(C)C(=CC[C@@H]4[C@@]5(C)CC[C@H](O)C(C)(C)[C@@H]5CC[C@]43C)[C@@H]2C1
Data returned: 14.9

====

- Test system: K562/Adr
- Assay comment: Cytotoxicity against human K562/ADR cells assessed as cell growth inhibition after 48 hrs by MTT assay
- Assay type: functional, cell-based
Reported IC50 values for the following compounds.
# number only, unit µM dropped from output

INSERT INTO assay_data (smiles_string, measurement_kind, units_of_measure, numeric_readout) VALUES
  ('C[C@H]1[C@H](C)CC[C@]2(C(=O)O)CC[C@]3(C)C(=CC[C@@H]4[C@@]5(C)CC[C@H](O)C(C)(C)[C@@H]5CC[C@]43C)[C@H]12', 'IC50', 'µM', 38.1),
  ('CC1(C)[C@@H](O)CC[C@]2(C)[C@H]3C(=O)C=C4[C@@H]5C[C@@](C)(C(=O)OCCCCCCCCn6cc(F)c(=O)[nH]c6=O)CC[C@]5(C)CC[C@@]4(C)[C@]3(C)CC[C@@H]12', 'IC50', 'µM', 27),
  ('CC1(C)[C@@H](O)CC[C@]2(C)[C@H]3C(=O)C=C4[C@@H]5C[C@@](C)(C(=O)O)CC[C@]5(C)CC[C@@]4(C)[C@]3(C)CC[C@@H]12', 'IC50', 'µM', 86.5);

Data request: Find the recorded IC50 belonging to O=c1[nH]cc(F)c(=O)[nH]1 and report it.
Data returned: 31.9

====

- Tested on: Bel7402/5-FU
- Assay comment: Cytotoxicity against human Bel7402/5-FU cells assessed as cell growth inhibition after 48 hrs by MTT assay
- Format: functional, cell-based
As shown below, each of these compounds has a reported IC50 value.
The figure you give is taken to be in µM; do not add the unit.

The cases that follow already have their IC50 on record.
INSERT INTO assay_data (smiles_string, measurement_kind, numeric_readout) VALUES
  ('CC1(C)[C@@H](O)CC[C@]2(C)[C@H]3C(=O)C=C4[C@@H]5C[C@@](C)(C(=O)OCCCCCCCCn6cc(F)c(=O)[nH]c6=O)CC[C@]5(C)CC[C@@]4(C)[C@]3(C)CC[C@@H]12', 'IC50', 19.8),
  ('CC1(C)CC[C@]2(C(=O)OCCCCCCCCn3cc(F)c(=O)[nH]c3=O)CC[C@]3(C)C(=CC[C@@H]4[C@@]5(C)CC[C@H](O)C(C)(C)[C@@H]5CC[C@]43C)[C@@H]2C1', 'IC50', 31.4),
  ('CC1(C)[C@@H](O)CC[C@]2(C)[C@H]3C(=O)C=C4[C@@H]5C[C@@](C)(C(=O)O)CC[C@]5(C)CC[C@@]4(C)[C@]3(C)CC[C@@H]12', 'IC50', 69.8);

Data request: Returns the measured IC50 for the input compound. Input: O=c1[nH]cc(F)c(=O)[nH]1
Data returned: 38.2

====

- System: K562
- Assay comment: Cytotoxicity against human K562 cells assessed as cell growth inhibition after 48 hrs by MTT assay
- Type: functional, cell-based
- Measurement parameters: K562, 48 h
Measurement kind: IC50 (µM)
Give the value, in units of µM, as a plain number.

INSERT INTO measurements (molecule, measurement_kind, units_of_measure, numeric_readout) VALUES
  ('C[C@H]1[C@H](C)CC[C@]2(C(=O)OCCCCCCn3cc(F)c(=O)[nH]c3=O)CC[C@]3(C)C(=CC[C@@H]4[C@@]5(C)CC[C@H](O)C(C)(C)[C@@H]5CC[C@]43C)[C@H]12', 'IC50', 'µM', 14.9),
  ('CC1(C)CC[C@]2(C(=O)OCCCCCCCCn3cc(F)c(=O)[nH]c3=O)CC[C@]3(C)C(=CC[C@@H]4[C@@]5(C)CC[C@H](O)C(C)(C)[C@@H]5CC[C@]43C)[C@@H]2C1', 'IC50', 'µM', 23),
  ('CC1(C)[C@@H](O)CC[C@]2(C)[C@H]3C(=O)C=C4[C@@H]5C[C@@](C)(C(=O)OCCCCCCn6cc(F)c(=O)[nH]c6=O)CC[C@]5(C)CC[C@@]4(C)[C@]3(C)CC[C@@H]12', 'IC50', 'µM', 35.1);

Next item in the queue.
Data request: Give its IC50 value. Item: C[C@H]1[C@H](C)CC[C@]2(C(=O)O)CC[C@]3(C)C(=CC[C@@H]4[C@@]5(C)CC[C@H](O)C(C)(C)[C@@H]5CC[C@]43C)[C@H]12 [URSOLIC ACID]
Data returned: 41

====

- Test system: K562
- Assay comment: Cytotoxicity against human K562 cells assessed as cell growth inhibition after 48 hrs by MTT assay
- Assay type: functional, cell-based
- Measurement parameters: K562, 48 h
pIC50: −log10 of the molar value.
Measurement kind: pIC50

Data request: What does the record list as pIC50 for CC1(C)[C@@H](O)CC[C@]2(C)[C@H]3C(=O)C=C4[C@@H]5C[C@@](C)(C(=O)OCCCCCCn6cc(F)c(=O)n(CCCCCCOC(=O)[C@@]7(C)CC[C@]8(C)CC[C@]9(C)C(=CC(=O)[C@@H]%10[C@@]%11(C)CC[C@H](O)C(C)(C)[C@@H]%11CC[C@]%109C)[C@@H]8C7)c6=O)CC[C@]5(C)CC[C@@]4(C)[C@]3(C)CC[C@@H]12 ?
Data returned: < 3.70

====

- Tested on: K562
- Assay comment: Cytotoxicity against human K562 cells assessed as cell growth inhibition after 48 hrs by MTT assay
- Type: functional, cell-based
- Measurement parameters: K562, 48 h
Below, each entry is listed with its recorded IC50.

INSERT INTO assay_data (molecule, result) VALUES
  ('CC1(C)[C@@H](O)CC[C@]2(C)[C@H]3C(=O)C=C4[C@@H]5C[C@@](C)(C(=O)O)CC[C@]5(C)CC[C@@]4(C)[C@]3(C)CC[C@@H]12 [ENOXOLONE]', '> 200 µM'),
  ('CC1(C)CC[C@]2(C(=O)O)CC[C@]3(C)C(=CC[C@@H]4[C@@]5(C)CC[C@H](O)C(C)(C)[C@@H]5CC[C@]43C)[C@@H]2C1 [OLEANOLIC_ACID]', '> 200 µM');

Data request: Fill blank: measured IC50 of the molecule CC1(C)[C@@H](O)CC[C@]2(C)[C@H]3C(=O)C=C4[C@@H]5C[C@@](C)(C(=O)OCCCCCCCCn6cc(F)c(=O)n(CCCCCCCCOC(=O)[C@@]7(C)CC[C@]8(C)CC[C@]9(C)C(=CC(=O)[C@@H]%10[C@@]%11(C)CC[C@H](O)C(C)(C)[C@@H]%11CC[C@]%109C)[C@@H]8C7)c6=O)CC[C@]5(C)CC[C@@]4(C)[C@]3(C)CC[C@@H]12 is ____.
Data returned: > 200 µM
